Taken from ChEMBL document CHEMBL5154740.

Give measured inhibition for each item. Keep answers brief.
# EXPERIMENTAL TARGET: Aurora kinase B (Homo sapiens)
# ASSAY TEXT: Inhibition of AURB (unknown origin) at 50 nM by Z'LYTE screening method relative to control

Field inhibition (Aurora kinase B (Homo sapiens)), entry "O=C1c2ccccc2CN1c1nc(N[C@H]2CC[Se]C2)c2nc[nH]c2n1" : 9%

Field inhibition (Aurora kinase B (Homo sapiens)), entry "O=c1c2ccccc2[se]n1-c1nc(N[C@H]2CCOC2)c2nc[nH]c2n1" : 0%

Field inhibition (Aurora kinase B (Homo sapiens)), entry "O=c1c2ccccc2sn1-c1nc(NC2CCCC2)c2nc[nH]c2n1" : 7%

Field inhibition (Aurora kinase B (Homo sapiens)), entry "O=c1c2ccccc2[se]n1-c1nc(N[C@@H]2C[C@H]3CC[C@@H]2C3)c2nc[nH]c2n1" : 4%
